Molecular target: 5-lipoxygenase (Rattus norvegicus, UniProt P12527)
Construct: homogenized RBL-1 cells; endogenous in cells; host or cells: RBL-1 cells (20,000×g supernatant of homogenate)
Assay: 5-Lipoxygenase inhibition, 20,000×g supernatant of homogenized RBL-1 cells, radiolabeled arachidonic acid
Format: biochemical
Conditions: at 0.4 μM; RBL-1 20,000 × g supernatant; read-out: % Inhibition at μM Conc.
REPORTED METRIC: inhibition at 0.4 µM (%)

- SMILES: "CC(=O)Oc1nc(-c2ccccc2)sc1-c1ccccc1"
  UNIT TAG: "%"
  inhibition at 0.4 µM: 88
- SMILES: "Oc1nc(-c2ccc(F)cc2)sc1-c1ccccc1"
  UNIT TAG: "%"
  inhibition at 0.4 µM: 82
- SMILES: "CCOc1ccc(-c2nc(O)c(-c3ccccc3)s2)cc1"
  UNIT TAG: "%"
  inhibition at 0.4 µM: 77
- SMILES: "Cc1ccc(-c2nc(O)c(-c3ccccc3)s2)cc1"
  UNIT TAG: "%"
  inhibition at 0.4 µM: 91

====

Molecular target: 5-lipoxygenase (Rattus norvegicus, UniProt P12527)
Construct: homogenized RBL-1 cells; endogenous in cells
Assay: 5-Lipoxygenase inhibition, 20,000×g supernatant of homogenized RBL-1 cells, radiolabeled arachidonic acid
Conditions: 5-lipoxygenase from RBL-1 20,000 × g supernatant; read-out: IC50 (95% CL)
REPORTED METRIC: IC50 (nM)

Sample answers from the record:
- COMPOUND: "Cc1sc(-c2cccc(F)c2)nc1O"
  IC50 / nM: 660
- COMPOUND: "CCOC(=O)CCC(=O)Oc1nc(-c2ccccc2)sc1-c1ccccc1"
  IC50 / nM: 750
- COMPOUND: "COC(=O)c1ccc(-c2nc(O)c(C)s2)cc1"
  IC50 / nM: 880
- COMPOUND: "Cc1sc(-c2ccccc2F)nc1O"
  IC50 / nM: 500

a: Cc1sc(-c2ccc(C(=O)OCCc3ccccc3)cc2)nc1O
b: Cc1sc(-c2cccc(Br)c2)nc1O
For the pair a and b , which entry has the numerically smaller recorded IC50? Give the label of your selection.
b
(b: 480 nM, a: 980 nM)

1: COC(=O)c1ccc(-c2nc(OC(C)=O)c(C)s2)cc1
2: Cc1sc(-c2ccc(F)cc2)nc1O
Which value of IC50 is numerically greater: that of 1 or that of 2 ? // output: label of the selected item
1

I: CC(=O)c1ccc(-c2nc(O)c(C)s2)cc1
II: CCCc1sc(-c2ccccc2)nc1O [Example 36, 2-Phenyl-4-hydroxy-5-propylthiazole]
Thinking about recorded IC50 values, which is higher, I or II ? Give the label under which the chosen entry appears.
I

====

Target: 5-lipoxygenase (Rattus norvegicus)
Construct: homogenized RBL-1 cells; endogenous in cells
Sequence (P12527 1-673): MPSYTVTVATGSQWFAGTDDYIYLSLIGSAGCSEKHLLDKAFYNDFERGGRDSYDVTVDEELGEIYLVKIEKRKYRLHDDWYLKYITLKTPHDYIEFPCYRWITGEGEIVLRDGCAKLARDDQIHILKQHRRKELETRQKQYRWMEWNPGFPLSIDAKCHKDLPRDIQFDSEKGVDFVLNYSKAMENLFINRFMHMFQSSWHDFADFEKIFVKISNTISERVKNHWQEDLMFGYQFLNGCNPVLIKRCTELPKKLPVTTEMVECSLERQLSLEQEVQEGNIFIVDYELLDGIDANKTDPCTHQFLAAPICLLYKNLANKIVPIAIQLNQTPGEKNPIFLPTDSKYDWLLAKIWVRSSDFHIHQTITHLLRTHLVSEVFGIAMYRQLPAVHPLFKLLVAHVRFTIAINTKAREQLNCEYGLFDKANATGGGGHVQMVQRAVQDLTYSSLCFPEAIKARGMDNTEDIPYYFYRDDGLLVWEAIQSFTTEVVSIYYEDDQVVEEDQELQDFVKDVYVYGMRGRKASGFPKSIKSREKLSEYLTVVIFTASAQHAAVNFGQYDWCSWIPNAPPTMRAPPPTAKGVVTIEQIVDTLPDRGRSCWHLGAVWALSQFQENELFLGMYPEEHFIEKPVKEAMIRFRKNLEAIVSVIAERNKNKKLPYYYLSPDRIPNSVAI
Test: 5-Lipoxygenase inhibition, 20,000×g supernatant of homogenized RBL-1 cells, radiolabeled arachidonic acid
Settings: 5-lipoxygenase from RBL-1 20,000 × g supernatant; read-out: IC50 (95% CL)
REPORTED METRIC: IC50 (nM)

- COMPOUND: "CCOC(=O)c1ccc(-c2nc(O)c(C)s2)cc1"
  RESULT VALUE: 710
- COMPOUND: "Cc1sc(-c2ccc(Br)cc2)nc1O"
  RESULT VALUE: 510
- COMPOUND: "Oc1nc(-c2ccccc2)sc1-c1ccccc1 [Example 34, 2-Phenyl-4-hydroxy-5-phenylthiazole]"
  RESULT VALUE: 530
- COMPOUND: "CCc1sc(-c2ccccc2)nc1O [Example 35, 2-Phenyl-4-hydroxy-5-ethylthiazole]"
  RESULT VALUE: 830
- COMPOUND: "Cc1sc(-c2ccccc2)nc1O [Example 31, 2-Phenyl-4-hydroxy-5-methylthiazole]"
  RESULT VALUE: 960
- COMPOUND: "CCCCc1sc(-c2ccccc2)nc1OC(C)=O"
  RESULT VALUE: 950
- COMPOUND: "Oc1nc(-c2ccccc2)sc1CCc1ccccc1 [Example 38, 2-Phenyl-4-hydroxy-5-phenethylthiazole]"
  RESULT VALUE: 690
- COMPOUND: "COc1ccc2nc(-c3nc(O)c(C)s3)sc2c1"
  RESULT VALUE: 890
- COMPOUND: "Cc1ccc(-c2nc(O)c(C)s2)cc1"
  RESULT VALUE: 630
- COMPOUND: "Cc1sc(-c2ccc(Cl)cc2)nc1O"
  RESULT VALUE: 570
- COMPOUND: "CCCc1sc(-c2ccccc2)nc1OC(=O)OCC"
  RESULT VALUE: 910
- COMPOUND: "Cc1cccc(-c2nc(O)c(C)s2)c1Cl"
  RESULT VALUE: 820
- COMPOUND: "Cc1sc(-c2ccc(C#N)cc2)nc1O"
  RESULT VALUE: 700
